system: HepG2; test: cell viability relative to DMSO; higher = less toxic; details: 72 h; 1 nM
attribute_measured: cell viability (%)
Report the figure in % without appending any unit label.

Solved cases (5 shown):
{"compound": "NC(=O)c1ccc(N(C(N)=O)c2c(F)cccc2F)nc1-c1ccc(F)cc1F [VX-702]", "output_unit": "%", "cell viability": 101}
{"compound": "CN[C@@H]1[C@@H](O)[C@@H](O[C@@H]2[C@@H](O)[C@H](O[C@H]3OC(CN)=CC[C@H]3N)[C@@H](N)C[C@H]2N)OC[C@]1(C)O [Sisomicin (sulfate)]", "output_unit": "%", "cell viability": 108}
{"compound": "NC(Cc1ccc(I)cc1)C(=O)O (stereo in doubt) [4-iodo-L-phenylalanine]", "output_unit": "%", "cell viability": 96.3}
{"compound": "O=C/C=C/c1ccccc1 [cinnamaldehyde]", "output_unit": "%", "cell viability": 97.8}
{"compound": "Cc1ccc(C)c(OCCCC(C)(C)C(=O)O)c1 [gemfibrozil]", "output_unit": "%", "cell viability": 98.2}

Q. Checklist item: cell viability tested on HepG2, entry CN1CCN(C(c2ccccc2)c2ccccc2)CC1 [cyclizine] , value?
A. 94.7

Q. Checklist item: cell viability tested on HepG2, entry c1ccc(N2CCN(Cc3nc4ccccc4[nH]3)CC2)nc1 [ABT-724] , value?
A. 92.4

Q. Checklist item: cell viability tested on HepG2, entry Cc1ccc(NC2=NCCN2)c(Cl)c1 [tolonidine] , value?
A. 116

Q. Checklist item: cell viability tested on HepG2, entry N#CSc1cc(SC#N)c(N)nc1N [PR-619] , value?
A. 104

Q. Checklist item: cell viability tested on HepG2, entry CC1(C)CCC(C)(C)c2c1cc(C(=O)Nc1cc(F)c(C(=O)O)c(F)c1)c(O)c2Cl , value?
A. 102

Q. Checklist item: cell viability tested on HepG2, entry O=P1(N(CCCl)CCCl)NCCCO1 (configuration not stated) [cyclophosphamide] , value?
A. 91.9

Q. Checklist item: cell viability tested on HepG2, entry N#Cc1cn([C@@H]2O[C@H](CO)[C@@H](O)[C@H]2O)c2ncnc(N)c12 [toyocamycin] , value?
A. 89.1

* * *

tested on: Caco-2; test: drug sensitivity score (DSS) for viability; higher = more toxic; extreme values may be limits of the assay; details: 72 h
attribute_measured: drug sensitivity score
The answer should be a number; do not append a unit.

Solved cases (6 shown):
{"compound": "Cc1ccc(=O)n(-c2ccccc2)c1", "subject_of_test": "Caco-2", "drug sensitivity score": 0}
{"compound": "CCN(CC)Cc1ccc(C(=O)N(CCc2ccccc2OC)[C@@H]2CCNC2)cc1", "subject_of_test": "Caco-2", "drug sensitivity score": 0}
{"compound": "O=C(O)Cc1cccnc1C(=O)O", "subject_of_test": "Caco-2", "drug sensitivity score": 0}
{"compound": "COc1ccc(-c2cc(=O)c3c(OC)c(OC)c(OC)c(OC)c3o2)cc1OC", "subject_of_test": "Caco-2", "drug sensitivity score": 1.1}
{"compound": "COc1ccc(C2CC(c3c(O)cc(C)oc3=O)=NCCS2)c(OC)c1 (stereo not given)", "subject_of_test": "Caco-2", "drug sensitivity score": 7.1}
{"compound": "O=C(O)c1cc(O)c2c(c1)C(=O)c1cccc(O)c1C2=O", "subject_of_test": "Caco-2", "drug sensitivity score": 0}

Q. Could you share which drug sensitivity score value was measured for CCCCOC(=O)c1ccc(N)cc1 ?
A. 0

Q. Could you share which drug sensitivity score value was measured for COC(=O)[C@@H](N)CS ?
A. 0

Q. Could you share which drug sensitivity score value was measured for C[C@@H](C(=O)O)c1ccc(-c2ccccc2)c(F)c1 (racemic) [flurbiprofen-(+/-)] ?
A. 0

Q. Could you share which drug sensitivity score value was measured for C/C(=C\C(=O)Nc1ccccc1C(=O)O)c1ccc2ccccc2c1 ?
A. 0
